B1: tRNA (parent)
chain: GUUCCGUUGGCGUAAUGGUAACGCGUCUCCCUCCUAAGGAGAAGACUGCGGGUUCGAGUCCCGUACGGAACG

variants of: B1; assay: yeast fitness relative to wild type (ratio to wild type); higher = fitter; tRNA-Arg(CCU), competitive growth, 37 C, YPD
Variants at the floor of the assay were thinned out.
Parameter: yeast fitness. Scope: all listed entries.
Keep it simple and answer with nothing but the number.

Worked cases, answers included:
• GUUCCGUUGGCGUAAUGGUAACGCGUCUUUCUCCUAAGGAGAUGACUGCGGGUUCGAGUCCCGUUCGGAACG = 0.588
• GUUCCGUUGGCGUAAUGGUAACGCGUCUCCCUCCUAAGGAGAAGACUGUGGGUUCGAGUCUCGUACGGAACG = 0.814
• GUUCAGUUGGCGUAAUGGUAACGCGUCUGCCUCCUAAGGAGAAGACUGCGGGUUCGAGUCCCGUACCGAACG = 0.588
• GUUCCGUUGGUGUAAUGGUAACGCGUCUCCCUCCUAAGGAGAAGACUGUGGGUUCGAGUCGCGUCCGGAACG = 0.534
• GUUCCGUUGGCGUAAUGGUCAUGCGUCUCCCUCCUAAGGAGAAGACAGCGGGUUCGAGUCCUGUACGGAACG = 0.643

Next item in the queue.
Q: Requested read-out: yeast fitness. Entry: GUUCCGUUCGCGUAAUGGUAACGCGUCUGCUUCGUAAGGAGGAGACUGCGGGUUCGAGUCCCGUACGGAACG
Result: 0.535

Each recorded value in this set is attributed to the RNAGym collection of RNA variant scans (doi:10.1126/science.aae0568).
